Where these numbers come from: patent US5874436A

Below: a set of entries, each annotated with reported IC50.
Target: Kinase A and Spo0F (Bacillus subtilis)
Construct: made in house; host or cells: E. coli (recombinant, overexpressing)
Sequence (P16497 1-606): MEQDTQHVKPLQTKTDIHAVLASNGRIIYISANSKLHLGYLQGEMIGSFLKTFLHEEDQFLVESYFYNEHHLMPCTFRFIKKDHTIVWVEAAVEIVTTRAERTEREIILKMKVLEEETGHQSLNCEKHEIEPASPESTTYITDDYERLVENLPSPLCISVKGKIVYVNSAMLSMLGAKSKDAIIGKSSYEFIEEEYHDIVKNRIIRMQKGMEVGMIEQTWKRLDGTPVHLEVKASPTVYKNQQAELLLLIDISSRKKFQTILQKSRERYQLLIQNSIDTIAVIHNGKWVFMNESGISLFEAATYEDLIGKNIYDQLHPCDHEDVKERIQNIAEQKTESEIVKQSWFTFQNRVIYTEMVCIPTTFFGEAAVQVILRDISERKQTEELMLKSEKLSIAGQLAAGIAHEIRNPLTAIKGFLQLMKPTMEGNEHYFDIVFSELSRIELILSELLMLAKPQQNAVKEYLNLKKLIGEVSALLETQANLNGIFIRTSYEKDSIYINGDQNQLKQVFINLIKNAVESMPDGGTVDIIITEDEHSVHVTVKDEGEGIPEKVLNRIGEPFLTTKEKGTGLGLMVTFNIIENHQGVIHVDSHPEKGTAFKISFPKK
Assay: Autophosphorylation of Kinase A and transphosphorylation of Spo0F assay (HPK in vitro assay)
Type: biochemical
Conditions: inhibitor concentrations from 1 to 500 μM, [32P]ATP, phosphoimager
Provide the reading as a plain figure in µM.

Below are worked cases with known answers.
O=C(CCc1ccc(O)cc1)OCCC(c1ccccc1)(c1ccccc1)c1ccccc1
160
O=C(O)CCc1cccc(OCCC(c2ccccc2)(c2ccccc2)c2ccccc2)c1
42
O=C1NC(=O)C(c2ccc(OCCC(c3ccccc3)(c3ccccc3)c3ccccc3)cc2)S1 (stereo not shown)
18

Note: attention shifts to another entry.
[Q] Item `NCCc1ccc(NC(=O)CC(c2ccccc2)(c2ccccc2)c2ccccc2)cc1` with Kinase A and Spo0F (Bacillus subtilis) - IC50?
[A] 59

====

Below: a set of entries, each annotated with reported IC50.
molecular target: Kinase A and Spo0F (Bacillus subtilis); construct: made in house; host or cells: E. coli (recombinant, overexpressing); assay: Autophosphorylation of Kinase A and transphosphorylation of Spo0F assay (HPK in vitro assay); assay type: biochemical; conditions: inhibitor concentrations from 1 to 500 μM, [32P]ATP, phosphoimager
Provide the reading as a plain figure in µM.

[Q] Quick one: IC50 of O=C(O)CCc1ccccc1OCCC(c1ccccc1)(c1ccccc1)c1ccccc1 [Example 38] ?
[A] 27

[Q] Quick one: IC50 of C[N+](C)(C)Cc1ccc(OCCC(c2ccccc2)(c2ccccc2)c2ccccc2)cc1.[Cl-] [Example 33] ?
[A] 29

[Q] Quick one: IC50 of O=C(O)c1c(O)cccc1OCCC(c1ccccc1)(c1ccccc1)c1ccccc1 [Example 42] ?
[A] 85

[Q] Quick one: IC50 of O=C(O)COc1cccc(OCCC(c2ccccc2)(c2ccccc2)c2ccccc2)c1 [Example 44] ?
[A] 71

[Q] Quick one: IC50 of c1ccc(C(CCOc2ccc(-c3nnn[nH]3)cc2)(c2ccccc2)c2ccccc2)cc1 [Example 39] ?
[A] 110

[Q] Quick one: IC50 of O=C(O)/C=C/c1cccc(OCCC(c2ccccc2)(c2ccccc2)c2ccccc2)c1 [Example 43] ?
[A] 40

[Q] Quick one: IC50 of O=C(/C=C/c1ccc(OCCC(c2ccccc2)(c2ccccc2)c2ccccc2)cc1)NCCO [Example 25] ?
[A] 150

[Q] Quick one: IC50 of O=C(CC(c1ccccc1)(c1ccccc1)c1ccccc1)Nc1ccc(N2CCNCC2)cc1 [Example 1] ?
[A] 200

[Q] Quick one: IC50 of O=C(O)C(O)c1ccc(OCCC(c2ccccc2)(c2ccccc2)c2ccccc2)cc1 (centres unmarked) [Example 37] ?
[A] 73

[Q] Quick one: IC50 of NCCc1cccc(OCCC(c2ccccc2)(c2ccccc2)c2ccccc2)c1 [Example 7] ?
[A] 80

[Q] Quick one: IC50 of N=C(N)NCCc1ccc(OCCC(c2ccccc2)(c2ccccc2)c2ccccc2)cc1 [Example 5] ?
[A] 5

[Q] Quick one: IC50 of O=C(O)CCCOc1cccc(OCCC(c2ccccc2)(c2ccccc2)c2ccccc2)c1 [Example 46] ?
[A] 16

====

Target: Kinase A and Spo0F (Bacillus subtilis, UniProt P16497)
Construct: made in house; host or cells: E. coli (recombinant, overexpressing)
Sequence (P16497 1-606): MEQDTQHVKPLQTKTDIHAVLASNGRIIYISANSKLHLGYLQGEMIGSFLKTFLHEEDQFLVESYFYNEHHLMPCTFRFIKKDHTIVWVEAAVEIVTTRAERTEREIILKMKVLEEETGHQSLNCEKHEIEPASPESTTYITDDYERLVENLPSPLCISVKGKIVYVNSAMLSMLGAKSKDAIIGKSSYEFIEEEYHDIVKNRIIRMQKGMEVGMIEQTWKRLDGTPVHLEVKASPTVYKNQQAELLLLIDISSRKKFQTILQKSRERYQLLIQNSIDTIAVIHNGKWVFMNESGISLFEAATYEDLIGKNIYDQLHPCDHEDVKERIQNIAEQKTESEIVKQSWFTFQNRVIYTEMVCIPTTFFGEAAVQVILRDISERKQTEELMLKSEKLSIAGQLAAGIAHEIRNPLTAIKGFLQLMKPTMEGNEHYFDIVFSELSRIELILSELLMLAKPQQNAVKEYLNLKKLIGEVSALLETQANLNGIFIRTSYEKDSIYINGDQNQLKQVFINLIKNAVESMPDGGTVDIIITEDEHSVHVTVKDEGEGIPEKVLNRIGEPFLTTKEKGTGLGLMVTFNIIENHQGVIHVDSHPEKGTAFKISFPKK
Assay: Autophosphorylation of Kinase A and transphosphorylation of Spo0F assay (HPK in vitro assay)
Type: biochemical
Details: inhibitor concentrations from 1 to 500 μM, [32P]ATP, phosphoimager
Below: a set of entries, each annotated with reported IC50.
Provide the reading as a plain figure in µM.

COc1ccc(CCN)cc1OCCC(c1ccccc1)(c1ccccc1)c1ccccc1 [Example 8]
27
Cc1n(C)cc[n+]1Cc1ccc(OCCC(c2ccccc2)(c2ccccc2)c2ccccc2)cc1.[Cl-] [Example 30]
28
c1ccc(C(CCOc2ccc(Cc3nnn[nH]3)cc2)(c2ccccc2)c2ccccc2)cc1 [Example 32]
19

[Q] Item O=C(O)Cc1ccccc1OCCC(c1ccccc1)(c1ccccc1)c1ccccc1 [Example 36] with Kinase A and Spo0F (Bacillus subtilis, UniProt P16497) - IC50?
[A] 45

[Q] Item O=C(O)CCc1ccc(OCCC(c2ccccc2)(c2ccccc2)c2ccccc2)cc1 [Example 12] with Kinase A and Spo0F (Bacillus subtilis, UniProt P16497) - IC50?
[A] 51

[Q] Item C[N+](C)(Cc1ccccc1)Cc1ccc(OCCC(c2ccccc2)(c2ccccc2)c2ccccc2)cc1.[Cl-] [Example 28] with Kinase A and Spo0F (Bacillus subtilis, UniProt P16497) - IC50?
[A] 13

[Q] Item O=C(O)Cc1cccc(OCCC(c2ccccc2)(c2ccccc2)c2ccccc2)c1 [Example 34] with Kinase A and Spo0F (Bacillus subtilis, UniProt P16497) - IC50?
[A] 38

[Q] Item O=C(O)Cc1ccc(OCCC(c2ccccc2)(c2ccccc2)c2ccccc2)cc1 [Example 13] with Kinase A and Spo0F (Bacillus subtilis, UniProt P16497) - IC50?
[A] 50

[Q] Item NCCc1ccc(OCCC(c2ccccc2)(c2ccccc2)c2ccccc2)cc1 [Example 3] with Kinase A and Spo0F (Bacillus subtilis, UniProt P16497) - IC50?
[A] 14

[Q] Item NCc1ccc2cc(OCCC(c3ccccc3)(c3ccccc3)c3ccccc3)ccc2c1 [Example 20] with Kinase A and Spo0F (Bacillus subtilis, UniProt P16497) - IC50?
[A] 75

[Q] Item NCCc1ccc(OCCC(c2ccc(Cl)cc2)(c2ccc(Cl)cc2)c2ccc(Cl)cc2)cc1 [Example 6] with Kinase A and Spo0F (Bacillus subtilis, UniProt P16497) - IC50?
[A] 150

[Q] Item O=C(O)c1ccc(OCCC(c2ccccc2)(c2ccccc2)c2ccccc2)cc1 [Example 21, 4-(3,3,3-Triphenylpropoxy)benzoic acid] with Kinase A and Spo0F (Bacillus subtilis, UniProt P16497) - IC50?
[A] 290

====

target: Kinase A and Spo0F (Bacillus subtilis, UniProt P16497); construct: made in house; host or cells: E. coli (recombinant, overexpressing); experiment: Autophosphorylation of Kinase A and transphosphorylation of Spo0F assay (HPK in vitro assay); assay type: biochemical; conditions: inhibitor concentrations from 1 to 500 μM, [32P]ATP, phosphoimager
# note: boundary value 20 µM maps to Not fulfilled; IC50 below it maps to Fulfilled

Please review the entries below; each comes with its answer.
O=C(Cc1ccc(O)cc1)OCCC(c1ccccc1)(c1ccccc1)c1ccccc1 [Example 23]
Not fulfilled
[Cl-].c1ccc(C(CCOc2ccc(C[n+]3ccccc3)cc2)(c2ccccc2)c2ccccc2)cc1 [Example 29]
Fulfilled
N=C(N)NCCc1ccc(NC(=O)CC(c2ccccc2)(c2ccccc2)c2ccccc2)cc1 [Example 18]
Not fulfilled

From here, focus on the item given below.
[Q] I wonder whether N=C(N)NCCc1ccc(OCCCC(c2ccccc2)(c2ccccc2)c2ccccc2)cc1 [Example 11] has IC50 below 20 µM. Can you tell?
[A] Not fulfilled
